These data points were gathered from the supplement of paper PMC10567573.

Listed here: items and their measured protein stability index.
B1: ANKRD17 (parent)
chain: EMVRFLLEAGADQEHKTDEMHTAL

variants of: B1; experiment: protein stability index of a GFP-peptide fusion (GPS, HEK-293T) (PSI 1-6); higher = more stable; conditions: c terminus: a fixed tail appended;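 also: lentivirally expressed fusions sorted by FACS into six bins by GFP to DsRed ratio, PSI derived from sequencing read proportions per bin multiplied by bin number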

Mutation descriptor	protein stability index
Q13M	2.25
H21P	2.54
E8G	2.08
A9N	2.92
D12M	2.07
T17S	2.76

Ask | Entry T22V : reported protein stability index = ?
Reply | 2.46

Ask | Follow-up entry: R4Q
Reply | 3.61

Ask | Similarly, M2C ?
Reply | 3.4

Ask | Another: E8M
Reply | 2.62

Ask | Now the same for E19F
Reply | 1.97

Ask | Same for T22W
Reply | 1.91
